Target: HIV-1 protease (Human immunodeficiency virus type 1 group M subtype B, UniProt P04585)
Construct: The protease (or proteinase) enzyme, consisting of only 99 amino acids
Test: In vitro HIV protease inhibitory assay (fluorescently labeled substrate, avidin-polystyrene particles)
Type: biochemical
Conditions: HIV-1 dose 3.3 μM
Experimental: The HIV protease screening assay is based on a fluorescently labeled substrate which can be resolved from nonlabeled cleavage product using avidin-polystyrene particles, 0.7-0.9 μm. […] The labeled cleavage product is separated from the unreacted substrate via filtration and is read on the IDEXX Screen Machine. (IDEXX Corporation--Portland, Me.) The data are analyzed by appropriate computer algorithms to ascertain percent inhibition values. […]
compounds and their reported inhibition at 3.3 µM
Field: numeric (%). Do not append units.

Known results for compounds:
CCCC1(CCC)OC(=O)C(C(c2cccc(NS(=O)(=O)c3cn(C)cn3)c2)C(C)C)=C1O (centres unmarked) [IX-24]: 102
CCCC1(CCC)OC(=O)C(C(Cc2ccccc2)c2cccc(NS(=O)(=O)c3ccc(C#N)cc3)c2)=C1O (centres unmarked) [IX-39]: 76.8
O=C1OC(CCc2ccccc2)(CCc2ccccc2)C(O)=C1C(c1ccccc1)C1CC1 (centres unmarked) [DX-9]: 86.7
CCCC1(CCC)OC(=O)C(C(c2cccc(NS(=O)(=O)c3cn(C)cn3)c2)C2CC2)=C1O (centres unmarked) [IX-17]: 108

Okay, now this compound:
Request: # input compound: CCC1(Cc2ccccc2)OC(=O)C(C(c2ccccc2)C2CC2)=C1O (centres unmarked) [DX-3] ; wanted: its inhibition at 3.3 µM
Result: 95.5

----------
Target: HIV-1 protease (Human immunodeficiency virus type 1 group M subtype B, UniProt P04585)
Construct: The protease (or proteinase) enzyme, consisting of only 99 amino acids
Experiment: In vitro HIV protease inhibitory assay (fluorescently labeled substrate, avidin-polystyrene particles)
Assay type: biochemical
Settings: test compound concentration 10.0 μM
Description: The HIV protease screening assay is based on a fluorescently labeled substrate which can be resolved from nonlabeled cleavage product using avidin-polystyrene particles, 0.7-0.9 μm. […] The labeled cleavage product is separated from the unreacted substrate via filtration and is read on the IDEXX Screen Machine. (IDEXX Corporation--Portland, Me.) The data are analyzed by appropriate computer algorithms to ascertain percent inhibition values. […]
molecules and their reported HIV-1 Protease % Inhibition
Field: numeric (%). Do not append units.

Known results for molecules:
O=C1OC2(CCCCC2CCc2ccccc2)C(O)=C1C(c1ccccc1)C1CC1 (stereo not shown): 95.68
O=C1OC2(CCCCC2Cc2ccccc2)C(O)=C1C(c1ccccc1)C1CC1 (stereo not shown): 99.7
CCCC1(CCC)OC(=O)C(C(c2cccc(N)c2)C2CC2)=C1O (stereo not shown): 119.69

Okay, now this molecule:
Request: # input molecule: CCCC1(CCC)OC(=O)C(C(c2cccc(NS(=O)(=O)c3ccc(C#N)c(C4CCCC4)c3)c2)C2CCCC2)=C1O (stereo not shown) ; wanted: its HIV-1 Protease % Inhibition
Result: 94.94

----------
compounds and their reported inhibition at 10 µM
target: HIV-1 protease (Human immunodeficiency virus type 1 group M subtype B, UniProt P04585); construct: The protease (or proteinase) enzyme, consisting of only 99 amino acids; assay: In vitro HIV protease inhibitory assay (fluorescently labeled substrate, avidin-polystyrene particles); assay type: biochemical; conditions: HIV-1 dose 10.0 μM
Field: numeric (%). Do not append units.

Known results for compounds:
CC(C)(C)OC(=O)N1CCC2(CC1)OC(=O)C(C(c1ccccc1)C1CC1)=C2O (stereo not shown): 89.9
CCCC1(CCC)OC(=O)C(C(CC)c2cccc(N)c2)=C1O (stereo not shown): 86.5
CC/C=C1\OC(=O)C(C(c2ccccc2)C2CC2)=C1O (stereo not shown): 65.3
CCCC1(CCC)OC(=O)C(C(c2cccc(NS(=O)(=O)c3ncc[nH]3)c2)C2CC2)=C1O (stereo not shown): 79.6
CCCC1(CCC)OC(=O)C(C(c2cccc(NS(=O)(=O)c3nc4ccccc4[nH]3)c2)C2CC2)=C1O (stereo not shown): 102

Okay, now this compound:
Request: # input compound: CCCC1(CCC)OC(=O)C(C(CC(C)C)c2cccc(NS(=O)(=O)c3ccc(C#N)cc3)c2)=C1O (stereo not shown) ; wanted: its inhibition at 10 µM
Result: 101

----------
compounds and their reported inhibition at 3.3 µM
target: HIV-1 protease (Human immunodeficiency virus type 1 group M subtype B); construct: The protease (or proteinase) enzyme, consisting of only 99 amino acids; test: In vitro HIV protease inhibitory assay (fluorescently labeled substrate, avidin-polystyrene particles); type: biochemical; conditions: HIV-1 dose 3.3 μM
Field: numeric (%). Do not append units.

Known results for compounds:
CCCC1(Cc2ccccc2)OC(=O)C(C(c2cccc(NS(=O)(=O)c3cccc4cccnc34)c2)C(C)C)=C1O (centres unmarked): 107
CC1(CCc2ccccc2)OC(=O)C(C(c2ccccc2)C2CC2)=C1O (centres unmarked): 98.1
CCCC1(CCC)OC(=O)C(C(c2cccc(NS(=O)(=O)c3cccc4cccnc34)c2)C2CC2)=C1O (centres unmarked): 102
O=C1OC2(CCCCC2Cc2ccccc2)C(O)=C1C(c1ccccc1)C1CC1 (centres unmarked): 101
CC(C)C1OC(=O)C(C(c2ccccc2)C2CC2)=C1O (centres unmarked): 40.5
CCCC1(CCC)OC(=O)C(C(c2cccc(NS(=O)(=O)c3ncccn3)c2)C2CC2)=C1O (centres unmarked): 93.8
CCCC1(CCC)OC(=O)C(C(c2cccc(NS(=O)(=O)c3ccc4ccccc4n3)c2)C2CC2)=C1O (centres unmarked): 83
CCCC1(CCC)OC(=O)C(C(c2cccc(NS(=O)(=O)c3ccc(C#N)cc3)c2)C(C)(C)C)=C1O (centres unmarked): 120

Request: # input compound: CCCC1(Cc2ccccc2)OC(=O)C(C(c2cccc(NS(=O)(=O)c3cn(C)cn3)c2)C(C)C)=C1O (centres unmarked) ; wanted: its inhibition at 3.3 µM
Result: 97.1

Request: # input compound: CCC1(Cc2ccccc2)OC(=O)C(C(c2ccccc2)C(C)C)=C1O (centres unmarked) ; wanted: its inhibition at 3.3 µM
Result: 103

----------
molecular target: HIV-1 protease (Human immunodeficiency virus type 1 group M subtype B); construct: The protease (or proteinase) enzyme, consisting of only 99 amino acids; test: In vitro HIV protease inhibitory assay (fluorescently labeled substrate, avidin-polystyrene particles); format: biochemical; conditions: HIV-1 dose 30.0 μM
EXPERIMENTAL ENDPOINT: inhibition at 30 µM (%)
Field: numeric (%). Do not append units.

Known results for compounds:
CCCC1(CCC)OC(=O)C(C(Cc2ccccc2)c2cccc(NS(=O)(=O)c3ccc(C#N)cc3)c2)=C1O (centres unmarked): 106
CCCC1(CCC)OC(=O)C(C(CC)c2cccc([N+](=O)[O-])c2)=C1O (centres unmarked): 102
CCCC1(CCC)OC(=O)C(C(c2cccc(NS(=O)(=O)c3ccc(C#N)cc3)c2)C(C)(C)C)=C1O (centres unmarked): 117
CCC1(Cc2ccccc2)OC(=O)C(C(c2ccccc2)C(C)C)=C1O (centres unmarked): 108

Request: Return inhibition at 30 µM measured with HIV-1 protease (Human immunodeficiency virus type 1 group M subtype B) given this compound: CCCC1(CCC)OC(=O)C(C(c2cccc(NS(=O)(=O)c3cn(C)cn3)c2)C(C)(C)C)=C1O (centres unmarked)
Result: 105

Request: Return inhibition at 30 µM measured with HIV-1 protease (Human immunodeficiency virus type 1 group M subtype B) given this compound: CCC1CCCCC12OC(=O)C(C(c1ccccc1)C1CC1)=C2O (centres unmarked) [IX-34]
Result: 93.3

Request: Return inhibition at 30 µM measured with HIV-1 protease (Human immunodeficiency virus type 1 group M subtype B) given this compound: O=C1OC2(CCCCCC2)C(O)=C1C(c1ccccc1)C1CC1 (centres unmarked)
Result: 104

Request: Return inhibition at 30 µM measured with HIV-1 protease (Human immunodeficiency virus type 1 group M subtype B) given this compound: O=C1OC(Cc2ccccc2)(Cc2ccccc2)C(O)=C1C(c1cccc(NS(=O)(=O)c2cccc3cccnc23)c1)C1CC1 (centres unmarked)
Result: 81.7

----------
compounds and their reported inhibition at 1 µM
biological target: HIV-1 protease (Human immunodeficiency virus type 1 group M subtype B, UniProt P04585); construct: The protease (or proteinase) enzyme, consisting of only 99 amino acids; experiment: In vitro HIV protease inhibitory assay (fluorescently labeled substrate, avidin-polystyrene particles); assay type: biochemical; settings: HIV-1 dose 1.0 μM
Field: numeric (%). Do not append units.

Known results for compounds:
O=C1OC(CCCc2ccccc2)C(O)=C1C(c1ccccc1)C1CC1 (centres unmarked): 46
O=C1OC(Cc2ccccc2)C(O)=C1C(c1ccccc1)C1CC1 (centres unmarked): 18.7
O=C1OC(CCC2CCCCC2)C(O)=C1C(c1ccccc1)C1CC1 (centres unmarked): 12.6

Okay, now this compound:
Request: # input compound: O=C1OC(CCc2ccccc2)C(O)=C1C(c1ccccc1)C1CC1 (centres unmarked) ; wanted: its inhibition at 1 µM
Result: 47.2
